- System: L1210 leukemia ip in BDF1 mice, survival T/C
- Assay protocol: NCI In Vivo Anticancer Drug Screen. Data for tumor model L1210 Leukemia (intraperitoneal) in B6D2F1 (BDF1) mice
- Test context: endpoint: mean survival time; dose: 200.0 mg/kg/injection; schedule: Q04DX002 (ip); vehicle: saline with Tween-80; higher = longer survival
Toxic doses and inconclusive results are not listed.
Assay endpoint: T/C

> print(dat)
                              line.notation            result
1                        CCN(CC)S(=O)(=O)CC   96 % of control
2  Cc1c(C)c(C)c([N+](=O)[O-])c([N+](=O)[O-])c1C  114 % of control
3                  O=C(C#Cc1ccccc1)N1CCCCC1   98 % of control
4  COc1cc(OC)c(-c2nc3ccc(C)cc3c(=O)o2)cc1OC  100 % of control
5                           CCCCNc1nnc(N)s1   98 % of control
